biological target: recombinant poly(ADP-ribose) polymerase 1 (PARP1) (Homo sapiens (Human))
Sequence (P09874 whole entry): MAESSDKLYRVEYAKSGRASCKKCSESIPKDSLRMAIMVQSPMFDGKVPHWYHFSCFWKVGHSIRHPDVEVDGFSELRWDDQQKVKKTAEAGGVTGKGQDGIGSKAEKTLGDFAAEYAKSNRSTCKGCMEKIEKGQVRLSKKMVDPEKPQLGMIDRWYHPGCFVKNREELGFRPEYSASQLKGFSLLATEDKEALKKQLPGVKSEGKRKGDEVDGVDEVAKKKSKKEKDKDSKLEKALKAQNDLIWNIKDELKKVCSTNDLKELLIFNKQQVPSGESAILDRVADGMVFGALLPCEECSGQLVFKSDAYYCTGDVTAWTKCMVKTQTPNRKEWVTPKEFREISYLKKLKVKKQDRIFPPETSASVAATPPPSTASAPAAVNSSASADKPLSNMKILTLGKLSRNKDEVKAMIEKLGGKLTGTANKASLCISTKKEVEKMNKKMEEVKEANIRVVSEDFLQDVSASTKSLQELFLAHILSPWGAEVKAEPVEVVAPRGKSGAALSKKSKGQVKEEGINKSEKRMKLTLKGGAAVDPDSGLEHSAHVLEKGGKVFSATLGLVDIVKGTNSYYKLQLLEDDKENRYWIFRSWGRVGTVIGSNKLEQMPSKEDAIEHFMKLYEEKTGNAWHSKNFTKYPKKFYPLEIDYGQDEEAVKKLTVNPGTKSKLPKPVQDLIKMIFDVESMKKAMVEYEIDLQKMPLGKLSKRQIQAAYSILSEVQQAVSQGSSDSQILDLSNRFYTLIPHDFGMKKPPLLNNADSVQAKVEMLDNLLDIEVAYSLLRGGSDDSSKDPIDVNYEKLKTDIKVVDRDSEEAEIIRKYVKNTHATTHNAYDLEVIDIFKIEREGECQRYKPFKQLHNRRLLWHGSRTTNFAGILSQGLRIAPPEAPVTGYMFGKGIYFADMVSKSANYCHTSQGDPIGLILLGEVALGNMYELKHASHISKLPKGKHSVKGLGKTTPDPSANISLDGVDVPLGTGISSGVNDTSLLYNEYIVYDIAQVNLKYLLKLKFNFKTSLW
pIC50: −log10 of the molar value.
# cutoff 9 applies to pIC50; >= gives Yes, < gives No

Hi, just wondering whether Cc1cnn2c1c(=O)[nH]c1c(F)c(CN3CCN(c4ccc(C(=O)NCC(F)F)nc4F)CC3)ccc12 shows pIC50 of 9 or higher. Yes

Same read-out for CNC(=O)c1ccc(N2CCN(Cc3ccc4c([nH]c(=O)c5ccoc54)c3F)CC2)c(F)n1 ? Yes

Same read-out for CNC(=O)c1ccc(N2CCN(Cc3ccc4c(c3)[nH]c(=O)c3cn(C)cc34)CC2)c(C)n1 ? No

Same read-out for CNC(=O)c1ccc(N2CCN(Cc3ccc4c([nH]c(=O)c5occc54)c3F)CC2)c(Cl)n1 ? Yes

Same read-out for CNC(=O)c1ccc(N2CCN(Cc3cc(F)c4c(c3)[nH]c(=O)n3cc(C)nc43)CC2)c(F)n1 ? No
